# tgt: PIM-3 (Homo sapiens)
quantity: pIC50
Numbers only, as −log10 of the molar value.

Annotate the compound CN(C)CCNc1cncc(-c2ccc3c(c2)/C(=C/c2cnc[nH]2)C(=O)N3)n1 with its measured pIC50. 8.16
